Ref: patent US20150297718A1

- assay_text: In vivo rat study of iontophoresis delivery on dorsal back skin: tissue and plasma drug concentrations
- measurement_setup: iontophoresis 0.4 mA/cm^2 for 2 hrs; delivered drug (prodrug or ketoprofen)
Structures can show the parent of a compound that is named as a salt.
assay_endpoint: Drug concentration in the skin

| compound | assay_endpoint | reported_value |
| --- | --- | --- |
| CC(C(=O)OCC[N+](C)(C)C)c1cccc(C(=O)c2ccccc2)c1 (stereo not shown) [KCE, Ketoprofen choline ester chloride salt] | Drug concentration in the skin | 6719 μmol per kilogram of skin |
| CC(C[N+](C)(C)C)OC(=O)C(C)c1cccc(C(=O)c2ccccc2)c1.[Cl-] (stereo not shown) | Drug concentration in the skin | 6128 μmol per kilogram of skin |
| CC(C(=O)OCCCN(C)C)c1cccc(C(=O)c2ccccc2)c1.Cl (stereo not shown) | Drug concentration in the skin | 1883 μmol per kilogram of skin |

// next item, Drug concentration in the skin requested
// returns reported Drug concentration in the skin for input CC(C(=O)O)c1cccc(C(=O)c2ccccc2)c1 (stereo not shown) [Ketoprofen, reference compound]
378 μmol per kilogram of skin
